- system: MDM2 (Homo sapiens)
- Sequence (Q00987 1-125): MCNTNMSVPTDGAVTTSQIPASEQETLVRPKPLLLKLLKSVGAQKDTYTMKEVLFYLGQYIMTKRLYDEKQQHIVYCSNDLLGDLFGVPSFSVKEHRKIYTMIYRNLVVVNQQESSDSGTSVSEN
- experimentNotes: Competitive fluorescence polarization assay for MDM2
- Assay type: binding
- measurementContext: competitive FP assay, MDM2; read-out: IC50 (MDM2)
Where a SMILES comes first, the peptide text is derived from it. Bridges are numbered along the chain shown (N, C = ends). [ ]: non-standard residue; d: D form. Trp(6-Cl) = N[C@@H](Cc1c[nH]c2cc(Cl)ccc12)C(=O)O; R8 = C=CCCCCCC[C@@](C)(N)C(=O)O; S5 = C=CCCC[C@](C)(N)C(=O)O
observedProperty: IC50

Give the reported value of IC50 for this record: CC(=O)N[C@@H](CC(C)C)C(=O)N[C@H](C(=O)N[C@@H](Cc1ccccc1)C(=O)N[C@]1(C)CCCCCC/C=C/CCC[C@@](C)(C(=O)N[C@@H](CO)C(=O)N[C@@H](C)C(=O)N[C@@H](C)C(N)=O)NC(=O)[C@H](CC(C)C)NC(=O)[C@H](CCC(N)=O)NC(=O)[C@H](C)NC(=O)[C@H](Cc2c[nH]c3cc(Cl)ccc23)NC(=O)[C@H](Cc2ccc(O)cc2)NC(=O)[C@H](C)NC1=O)[C@@H](C)O [compound 99] (Ac-LTF[R8]AY[Trp(6-Cl)]AQL[S5]SAA-NH2; staple (E) 4-11)
< 10 nM

---

- system: MDMX (Homo sapiens, UniProt O15151)
- Sequence (O15151 1-125): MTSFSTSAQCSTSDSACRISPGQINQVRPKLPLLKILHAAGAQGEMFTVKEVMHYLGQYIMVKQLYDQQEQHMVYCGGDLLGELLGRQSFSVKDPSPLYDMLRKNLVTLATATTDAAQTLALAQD
- experimentNotes: Competitive fluorescence polarization assay for MDMX
- Assay type: binding
- measurementContext: competitive FP assay, read-out: Ki (MDMX)
pKi: −log10 of the molar value. Where a SMILES comes first, the peptide text is derived from it. Bridges are numbered along the chain shown (N, C = ends). [ ]: non-standard residue; d: D form. R8 = C=CCCCCCC[C@@](C)(N)C(=O)O; S5 = C=CCCC[C@](C)(N)C(=O)O; Sar = CNCC(=O)O
// pKi lookup, one value per entry

| compound | system | pKi |
| --- | --- | --- |
| CC(=O)N[C@@H](CCC(=O)O)C(=O)N[C@H](C(=O)N[C@@H](Cc1ccccc1)C(=O)N[C@]1(C)CCCCCCC=CCCC[C@@](C)(C(=O)N[C@@H](CO)C(=O)N[C@H](C(=O)N[C@@H](C)C(N)=O)C(C)C)NC(=O)[C@H](CC(C)C)NC(=O)[C@H](CCC(N)=O)NC(=O)[C@H](C)NC(=O)[C@H](Cc2c[nH]c3ccccc23)NC(=O)[C@H](Cc2ccc(O)cc2)NC(=O)[C@H](C(C)C)NC1=O)[C@@H](C)O [compound 126] (Ac-ETF[R8]VYWAQL[S5]SVA-NH2; staple 4-11) | MDMX (Homo sapiens, UniProt O15151) | 7.00 to 8.00 |

// switching to the query compound
Report value: pKi, system: MDMX (Homo sapiens, UniProt O15151), compound: CC(=O)N[C@@H](CC(C)C)C(=O)N[C@H](C(=O)N[C@@H](Cc1ccccc1)C(=O)N[C@]1(C)CCCCCCC=CCCC[C@@](C)(C(=O)N[C@@H](C)C(=O)N[C@@H](C)C(=O)N(C)CC(=O)N[C@@H](C)C(=O)N[C@@H](C)C(=O)N[C@H](C)C(N)=O)NC(=O)[C@H](CC(C)C)NC(=O)[C@H](CCC(N)=O)NC(=O)[C@H](C)NC(=O)[C@H](Cc2c[nH]c3ccccc23)NC(=O)[C@H](Cc2ccc(O)cc2)NC(=O)[C@H](CCC(=O)O)NC1=O)[C@@H](C)O [compound 575] (Ac-LTF[R8]EYWAQL[S5]AA[Sar]AA[dA]-NH2; staple 4-11)
7.00 to 8.00
